Recorded values, source ChEMBL document CHEMBL1157587.

For each of the molecules below, state its inhibition.
Biological target: Tyrosine-protein phosphatase non-receptor type 1 (Homo sapiens) (UniProt P18031)
Sequence (P18031 whole entry): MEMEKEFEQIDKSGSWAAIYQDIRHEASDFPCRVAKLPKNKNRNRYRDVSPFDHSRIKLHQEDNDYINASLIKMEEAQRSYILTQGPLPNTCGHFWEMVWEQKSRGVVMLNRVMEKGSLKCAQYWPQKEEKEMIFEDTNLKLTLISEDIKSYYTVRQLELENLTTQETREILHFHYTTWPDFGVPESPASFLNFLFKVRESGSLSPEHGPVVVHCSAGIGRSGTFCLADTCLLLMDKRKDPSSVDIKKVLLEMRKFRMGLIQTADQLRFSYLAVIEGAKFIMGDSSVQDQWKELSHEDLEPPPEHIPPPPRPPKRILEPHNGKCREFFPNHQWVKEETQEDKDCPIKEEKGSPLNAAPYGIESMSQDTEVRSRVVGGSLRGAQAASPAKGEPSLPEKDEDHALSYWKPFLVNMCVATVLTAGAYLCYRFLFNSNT
Experiment: Inhibition of PTP1B expressed in Escherichia coli BL21 (DE3) at 100 uM after 10 mins by spectrophotometry

Quickly give me recorded inhibition for CC(C)OC(=O)c1c(-c2ccc(-c3ccc(Cl)cc3)cc2)csc1NC(=O)C1C2C=CC(C2)C1C(=O)O (centres undefined) 90.5%

Quickly give me recorded inhibition for CC(C)OC(=O)c1c(-c2ccc(-c3ccccc3)cc2)csc1NC(=O)C1C2C=CC(C2)C1C(=O)O (centres undefined) 90.6%

Quickly give me recorded inhibition for "CCOC(=O)c1c(-c2ccc(-c3ccc(C(F)(F)F)cc3)cc2)csc1NC(=O)c1ccccc1C(=O)O" 86.3%

Quickly give me recorded inhibition for "CCOC(=O)c1c(-c2ccc(-c3ccc(OC)cc3)cc2)csc1NC(=O)c1ccccc1C(=O)O" 99.2%

Quickly give me recorded inhibition for CC(C)OC(=O)c1c(NC(=O)C2C3C=CC(C3)C2C(=O)O)sc2c1CCCC2 (centres undefined) 27.5%

Quickly give me recorded inhibition for "CC(C)OC(=O)c1c(-c2ccc(-c3ccccc3)cc2)csc1NC(=O)c1ccccc1C(=O)O" 99.5%

Quickly give me recorded inhibition for "CCOC(=O)c1c(-c2ccccc2-c2ccccc2)csc1NC(=O)c1ccccc1C(=O)O" 96.6%

Quickly give me recorded inhibition for "CC(C)OC(=O)c1c(-c2ccccc2)csc1NC(=O)c1ccccc1C(=O)O" 26.6%

Quickly give me recorded inhibition for O=C(OCc1ccccc1)c1c(-c2ccc3ccccc3c2)csc1NC(=O)C1CCCCC1C(=O)O (centres undefined) 72.1%
